# runDescription: AUC in Sprague-Dawley rat at 10 mg/kg administered via oral gavage by HPLC-MS/MS analysis
# Type: ADME, organism-based
# measurementParameters: in vivo
Task for the reader: assign each of the following molecules its reported AUC.
Give bare numbers, in ng·h/mL.

Hey, quick one: what's AUC for each of these?
1. CCn1c(/C=C/C(=O)/C=C/c2sc(C)nc2C(F)(F)F)nc2ccccc21
2. CC(C)n1c(/C=C/C(=O)/C=C/c2ccccn2)nc2ccccc21
3. CCC(C)n1ccnc1/C=C/C(=O)/C=C/c1sc(C)nc1C(F)(F)F (centres undefined)
4. CCCn1ccnc1/C=C/C(=O)/C=C/c1nc2ccccc2n1CCC

1: 18300; 2: 17600; 3: 24700; 4: 4390

---

Task for the reader: assign each of the following compounds its reported Ratio IC50.
# System: PC-3
# runDescription: Potency index, ratio of curcumin IC50 to test compound IC50 for human PC3 cells
# Type: functional
Answers are plain numbers.

CC(C)n1ccnc1/C=C/C(=O)/C=C/c1cnc(N2CCOCC2)s1 = 11
Cn1cc(Br)c(/C=C/C(=O)/C=C/c2ccccn2)n1 = 82

Hey, quick one: what's Ratio IC50 for each of these?
1. CC(C)n1ccnc1/C=C/C(=O)/C=C/c1cnc(N2CCCCC2)s1
2. CCC(C)n1ccnc1/C=C/C(=O)/C=C/c1nccs1 (centres undefined)
3. CCCn1c(/C=C/C(=O)/C=C/c2sc(C)nc2C(F)(F)F)nc2ccccc21
4. CCC(C)n1ccnc1/C=C/C(=O)/C=C/c1nn(C)cc1Br (centres undefined)
5. CC(C)n1ccnc1/C=C/C(=O)/C=C/c1cnc(N2CCCC2)s1
6. CC(C)n1ccnc1/C=C/C(=O)/C=C/c1nc2ccccc2n1C(C)C

1: 8; 2: 64; 3: 46; 4: 76; 5: 4; 6: 141

---

# System: DU-145
# runDescription: Antiproliferative activity against human DU145 cells assessed as decrease in cell viability after 3 days by WST assay
# Assay type: functional, cell-based
# measurementParameters: DU-145, 72 h
Task for the reader: assign each of the following compounds its reported pIC50.
Answers are plain numbers, as −log10 of the molar value.

The examples below pair each entry with its known result.
CCC(C)n1ccnc1/C=C/C(=O)/C=C/c1cc(OC)c(OC)c(OC)c1 (stereo unspecified) = 6.17
CCCC(C)n1ccnc1/C=C/C(=O)/C=C/c1nc2ccccc2n1C(C)CCC (stereo unspecified) = 6.55
CCC(C)n1ccnc1/C=C/C(=O)/C=C/c1sc(C)nc1C(F)(F)F (stereo unspecified) = 6.46
CCCn1c(/C=C/C(=O)/C=C/c2ccccn2)nc2ccccc21 = 6.49
Cc1cc(/C=C/C(=O)/C=C/c2ccccn2)no1 = 6.15

Hey, quick one: what's pIC50 for each of these?
1. CCC(C)n1ccnc1/C=C/C(=O)/C=C/c1nn(C)cc1Br (stereo unspecified)
2. CCC(C)n1ccnc1/C=C/C(=O)/C=C/c1conc1C (stereo unspecified)
3. Cn1c(/C=C/C(=O)/C=C/c2ccccn2)nc2ccccc21
4. COc1cc(/C=C/C(=O)/C=C/c2ccccn2)cc(OC)c1OC

[6.55, 6.12, 6.17, 6.08]

Hey, quick one: what's pIC50 for each of these?
1. Cc1nc(-c2ccncc2)sc1/C=C/C(=O)/C=C/c1nccn1C(C)C
2. CCCn1c(/C=C/C(=O)/C=C/c2sc(C)nc2C(F)(F)F)nc2ccccc21

1: 6.18; 2: 6.08
